Would you kindly list activity coefficient for each of these compounds?
experiment: activity coefficient (dimensionless); of the first substance listed, at infinite dilution; xn = mol fraction of the nth substance listed; details: 353.5 K; 101 kPa; Liquid; Chromatography; x1 = 0

The measured activity coefficient associated with c1ccccc1 [benzene] + CCCCC[n+]1ccccc1.O=S(=O)([N-]S(=O)(=O)C(F)(F)F)C(F)(F)F reads 1.04

For this compound ( Cc1ccccc1C [1,2-dimethylbenzene] + CCCCC[n+]1ccccc1.O=S(=O)([N-]S(=O)(=O)C(F)(F)F)C(F)(F)F ), measured activity coefficient is 1.69

So, CCc1ccccc1 [ethylbenzene] + CCCCC[n+]1ccccc1.O=S(=O)([N-]S(=O)(=O)C(F)(F)F)C(F)(F)F ? Its activity coefficient was 2

Recorded activity coefficient (compound Cc1ccccc1 [toluene] + CCCCC[n+]1ccccc1.O=S(=O)([N-]S(=O)(=O)C(F)(F)F)C(F)(F)F ): 1.36

# credit: the NIST ThermoML archive (doi:10.1016/j.jct.2010.06.009)
